Where do these numbers come from? They come from ChEMBL document CHEMBL1155286.

Test system: Leishmania braziliensis
Test: Inhibition of Mitochondrial dehydrogenase in Leishmania braziliensis MHOM/BR/00/LTB300 at 20 uM after 30 to 240 mins by MTT dye reduction assay in relative to control
Active and inactive are the calls of the source. The rule behind the calls is not given here.
Pick one: y for active, n for inactive

These solved cases illustrate the format of a correct answer.
| QUERY SMILES | TGT | CLASS ASSIGNMENT |
| --- | --- | --- |
| CCCCCCCCCCCCCCCCOP(=O)([O-])OCC[N+](C)(C)C | Leishmania braziliensis | y |
| Cc1ccc2c(c1)=[N+]([O-])C(C)(C)[N+]=2[O-] | Leishmania braziliensis | n |

QUERY: Please indicate how the test categorized Cc1ccc2c(c1)=[N+]([O-])C1(CCCC1)[N+]=2[O-] .
RESULT: y

QUERY: Please indicate how the test categorized [O-][N+]1=c2ccc(Br)cc2=[N+]([O-])C12CCCC2 .
RESULT: y
